Examples of compounds with documented growth at 1 µM follow.
Test system: PC-3
test.name: Growth inhibition of human PC3 cells assessed as cell growth at 10^-6 M by sulforhodamine B assay
Format: functional
measurement.setup: read-out: Activity
Unit % implied. Number only.

CC1(C)C[C@@H](O)[C@]2(C(=O)O)CC[C@]3(C)C(=CC[C@@H]4[C@@]5(C)C/C(=C\C=C\c6ccccc6)C(=O)C(C)(C)[C@@H]5CC[C@]43C)[C@@H]2C1 ... 80
CC(C)=CC(=O)O[C@@H]1CC(C)(C)C[C@H]2C3=CC[C@@H]4[C@@]5(C)CC[C@H](O)C(C)(C)[C@@H]5CC[C@@]4(C)[C@]3(C)CC[C@@]12C(=O)O ... 67
C/C=C(/C)C(=O)O[C@@H]1CC(C)(C)C[C@H]2C3=CC[C@@H]4[C@@]5(C)CCC(=O)C(C)(C)[C@@H]5CC[C@@]4(C)[C@]3(C)CC[C@@]12C(=O)O ... 68
C/C=C(/C)C(=O)O[C@@H]1CC(C)(C)C[C@H]2C3=CC[C@@H]4[C@@]5(C)CC[C@H](O)C(C)(C)[C@@H]5CC[C@@]4(C)[C@]3(C)CC[C@@]12C(=O)O ... 70

// below: growth at 1 µM requested for another compound
Tell me growth at 1 µM reported for CC(C)=CC(=O)O[C@@H]1CC(C)(C)C[C@H]2C3=CC[C@@H]4[C@@]5(C)CCC(=O)C(C)(C)[C@@H]5CC[C@@]4(C)[C@]3(C)CC[C@@]12C(=O)O
56

----------
Entries annotated with measured LC50 (50% lethal concentration)
Tested on: HCT-15
test.name: Growth inhibition of human HCT15 cells by sulforhodamine B assay
Assay type: functional
measurement.setup: read-out: pLC50 (converted)

// below: answered compounds
CC(C)=CC(=O)O[C@@H]1CC(C)(C)C[C@H]2C3=CC[C@@H]4[C@@]5(C)CCC(=O)C(C)(C)[C@@H]5CC[C@@]4(C)[C@]3(C)CC[C@@]12C(=O)O ... > 100 µM
CC(C)=CC(=O)O[C@@H]1CC(C)(C)C[C@H]2C3=CC[C@@H]4[C@@]5(C)CC[C@H](O)C(C)(C)[C@@H]5CC[C@@]4(C)[C@]3(C)CC[C@@]12C(=O)O ... > 100 µM
C/C=C(/C)C(=O)O[C@@H]1CC(C)(C)C[C@H]2C3=CC[C@@H]4[C@@]5(C)CC[C@H](O)C(C)(C)[C@@H]5CC[C@@]4(C)[C@]3(C)CC[C@@]12C(=O)O ... 63.1 µM
C/C=C(/C)C(=O)O[C@@H]1CC(C)(C)C[C@H]2C3=CC[C@@H]4[C@@]5(C)CCC(=O)C(C)(C)[C@@H]5CC[C@@]4(C)[C@]3(C)CC[C@@]12C(=O)O ... > 100 µM

--- query ---
Using the record for CC1(C)C[C@@H](O)[C@]2(C(=O)O)CC[C@]3(C)C(=CC[C@@H]4[C@@]5(C)C/C(=C\C=C\c6ccccc6)C(=O)C(C)(C)[C@@H]5CC[C@]43C)[C@@H]2C1 , state its measured LC50 (50% lethal concentration).
44.7 µM

----------
Overview of reported GI50 across a group of compounds:
Test system: MDA-MB-435
test.name: Growth inhibition of human MDA-MB-435 cells by sulforhodamine B assay
Format: functional
measurement.setup: read-out: GI50
Entry rule: numbers only, all in µM.

Please review the entries below; each comes with its answer.
CC1(C)C[C@@H](O)[C@]2(C(=O)O)CC[C@]3(C)C(=CC[C@@H]4[C@@]5(C)C/C(=C\C=C\c6ccccc6)C(=O)C(C)(C)[C@@H]5CC[C@]43C)[C@@H]2C1 ... 3.28
CC(C)=CC(=O)O[C@@H]1CC(C)(C)C[C@H]2C3=CC[C@@H]4[C@@]5(C)CC[C@H](O)C(C)(C)[C@@H]5CC[C@@]4(C)[C@]3(C)CC[C@@]12C(=O)O ... 11.9
C/C=C(/C)C(=O)O[C@@H]1CC(C)(C)C[C@H]2C3=CC[C@@H]4[C@@]5(C)CC[C@H](O)C(C)(C)[C@@H]5CC[C@@]4(C)[C@]3(C)CC[C@@]12C(=O)O ... 2.21
CC(C)=CC(=O)O[C@@H]1CC(C)(C)C[C@H]2C3=CC[C@@H]4[C@@]5(C)CCC(=O)C(C)(C)[C@@H]5CC[C@@]4(C)[C@]3(C)CC[C@@]12C(=O)O ... 6.22

Query compound follows.
Give me measured GI50, please, for this compound: C/C=C(/C)C(=O)O[C@@H]1CC(C)(C)C[C@H]2C3=CC[C@@H]4[C@@]5(C)CCC(=O)C(C)(C)[C@@H]5CC[C@@]4(C)[C@]3(C)CC[C@@]12C(=O)O
5.24

----------
# TGI per entry
System: U-251
test.name: Growth inhibition of human U251 cells by sulforhodamine B assay
Type: functional
measurement.setup: read-out: TGI
Report the figure in µM without appending any unit label.

Some compounds with known TGI results, for comparison:
CC1(C)C[C@@H](O)[C@]2(C(=O)O)CC[C@]3(C)C(=CC[C@@H]4[C@@]5(C)C/C(=C\C=C\c6ccccc6)C(=O)C(C)(C)[C@@H]5CC[C@]43C)[C@@H]2C1 ... 10.1
C/C=C(/C)C(=O)O[C@@H]1CC(C)(C)C[C@H]2C3=CC[C@@H]4[C@@]5(C)CC[C@H](O)C(C)(C)[C@@H]5CC[C@@]4(C)[C@]3(C)CC[C@@]12C(=O)O [Reduced Lantadene A] ... 3.24
CC(C)=CC(=O)O[C@@H]1CC(C)(C)C[C@H]2C3=CC[C@@H]4[C@@]5(C)CCC(=O)C(C)(C)[C@@H]5CC[C@@]4(C)[C@]3(C)CC[C@@]12C(=O)O ... 20.7

Please look at the following compound next.
Check the records and state TGI for CC(C)=CC(=O)O[C@@H]1CC(C)(C)C[C@H]2C3=CC[C@@H]4[C@@]5(C)CC[C@H](O)C(C)(C)[C@@H]5CC[C@@]4(C)[C@]3(C)CC[C@@]12C(=O)O [Reduced Lantadene B]
16.7

----------
Reported CC50 values for the following compounds.
Tested on: IGROV-1
test.name: Growth inhibition of human IGROV1 cells by sulforhodamine B assay
Type: functional
measurement.setup: read-out: pLC50 (the source's name) (converted)
Form entry: value (µM) — number only.

CC1(C)C[C@@H](O)[C@]2(C(=O)O)CC[C@]3(C)C(=CC[C@@H]4[C@@]5(C)C/C(=C\C=C\c6ccccc6)C(=O)C(C)(C)[C@@H]5CC[C@]43C)[C@@H]2C1 ... 74.1

Moving on to the next compound.
State its CC50 for this compound: C/C=C(/C)C(=O)O[C@@H]1CC(C)(C)C[C@H]2C3=CC[C@@H]4[C@@]5(C)CC[C@H](O)C(C)(C)[C@@H]5CC[C@@]4(C)[C@]3(C)CC[C@@]12C(=O)O
9.33

----------
System: MDA-MB-231
test.name: Growth inhibition of human MDA-MB-231 cells by sulforhodamine B assay
Format: functional
measurement.setup: read-out: TGI
observation.type: TGI (µM)
Return type: number; implicit unit µM.

Some solved cases for reference:
CC(C)=CC(=O)O[C@@H]1CC(C)(C)C[C@H]2C3=CC[C@@H]4[C@@]5(C)CC[C@H](O)C(C)(C)[C@@H]5CC[C@@]4(C)[C@]3(C)CC[C@@]12C(=O)O ... 19.4
CC1(C)C[C@@H](O)[C@]2(C(=O)O)CC[C@]3(C)C(=CC[C@@H]4[C@@]5(C)C/C(=C\C=C\c6ccccc6)C(=O)C(C)(C)[C@@H]5CC[C@]43C)[C@@H]2C1 ... 4.68

Please report TGI for the following compound: CC(C)=CC(=O)O[C@@H]1CC(C)(C)C[C@H]2C3=CC[C@@H]4[C@@]5(C)CCC(=O)C(C)(C)[C@@H]5CC[C@@]4(C)[C@]3(C)CC[C@@]12C(=O)O
21.8

Specify TGI for C/C=C(/C)C(=O)O[C@@H]1CC(C)(C)C[C@H]2C3=CC[C@@H]4[C@@]5(C)CCC(=O)C(C)(C)[C@@H]5CC[C@@]4(C)[C@]3(C)CC[C@@]12C(=O)O and stop.
33.4

Quote TGI reported for C/C=C(/C)C(=O)O[C@@H]1CC(C)(C)C[C@H]2C3=CC[C@@H]4[C@@]5(C)CC[C@H](O)C(C)(C)[C@@H]5CC[C@@]4(C)[C@]3(C)CC[C@@]12C(=O)O please.
3.14

----------
System: BT-549
test.name: Growth inhibition of human BT549 cells by sulforhodamine B assay
Type: functional
measurement.setup: read-out: TGI
observation.type: TGI

CC1(C)C[C@@H](O)[C@]2(C(=O)O)CC[C@]3(C)C(=CC[C@@H]4[C@@]5(C)C/C(=C\C=C\c6ccccc6)C(=O)C(C)(C)[C@@H]5CC[C@]43C)[C@@H]2C1 ... 14.8 µM

State its TGI: C/C=C(/C)C(=O)O[C@@H]1CC(C)(C)C[C@H]2C3=CC[C@@H]4[C@@]5(C)CCC(=O)C(C)(C)[C@@H]5CC[C@@]4(C)[C@]3(C)CC[C@@]12C(=O)O [LANTADENE A]
> 100 µM

Please indicate TGI recorded for CC(C)=CC(=O)O[C@@H]1CC(C)(C)C[C@H]2C3=CC[C@@H]4[C@@]5(C)CC[C@H](O)C(C)(C)[C@@H]5CC[C@@]4(C)[C@]3(C)CC[C@@]12C(=O)O [Reduced Lantadene B]
24.2 µM

Return the recorded TGI value; entry: CC(C)=CC(=O)O[C@@H]1CC(C)(C)C[C@H]2C3=CC[C@@H]4[C@@]5(C)CCC(=O)C(C)(C)[C@@H]5CC[C@@]4(C)[C@]3(C)CC[C@@]12C(=O)O
25 µM

Identify measured TGI corresponding to C/C=C(/C)C(=O)O[C@@H]1CC(C)(C)C[C@H]2C3=CC[C@@H]4[C@@]5(C)CC[C@H](O)C(C)(C)[C@@H]5CC[C@@]4(C)[C@]3(C)CC[C@@]12C(=O)O [Reduced Lantadene A]
4.06 µM
